experiment: enteral absorbability, serum concentration after oral administration to mice; type: in vivo; details: mouse, 4 hr., 50 mg/kg orally, fasted male ICR mice
READOUT: concentration at 4 h (ng/mL)

Example compounds with recorded concentration at 4 h:
COMPOUND	READOUT VALUE
CC1CN(c2c(F)cc3c(=O)c(C(=O)O)cn4c3c2C=CC4C)CCN1 (stereo not shown) [Compound 29]	4200
CC1CN(c2c(F)cc3c(=O)c(C(=O)O)cn4c3c2C(=O)CC4C)CCN1 (stereo not shown) [Compound 16]	4800

a: CC1COc2c(N3CCN(C)CC3)c(F)cc3c(=O)c(C(=O)O)cn1c23 (stereo not shown) [Ofloxacin, reference compound]
b: CC1CCc2c(N3CCN(C)CC3)c(F)cc3c(=O)c(C(=O)O)cn1c23 (stereo not shown) [OPC-7241, reference compound]
Lab notebook, comparison: a versus b , higher concentration at 4 h goes to which? Answer by quoting the chosen item's label.
b
(b: 2200 ng/mL, a: 1200 ng/mL)

* * *

Staphylococcus aureus FDA 209P JC-1 MIC data
READOUT: MIC (µg/mL)

COMPOUND	UNIT	MIC
CC1CC(=O)c2c(N3CCNCC3)c(F)cc3c(=O)c(C(=O)O)cn1c23 (stereo not shown)	µg/mL	0.2

1: CC1CN(c2c(F)cc3c(=O)c(C(=O)O)cn4c3c2C(=O)CC4C)CC(C)N1 (stereo not shown)
2: CC1C=Cc2c(N3CCN(C)CC3)c(F)cc3c(=O)c(C(=O)O)cn1c23 (stereo not shown)
3: CC1CN(c2c(F)cc3c(=O)c(C(=O)O)cn4c3c2C=CC4C)CCN1C (stereo not shown)
Arrange these compounds by their MIC, starting with the largest number. A complete answer lists every label in the requested sequence.
1, 2, 3
(1: 0.78 µg/mL, 2: 0.39 µg/mL, 3: 0.2 µg/mL)

* * *

assay: enteral absorbability, serum concentration after oral administration to mice; assay type: in vivo; details: mouse, 30 min., 50 mg/kg orally, fasted male ICR mice
READOUT: concentration at 0.5 h (ng/mL)

Example compounds with recorded concentration at 0.5 h:
COMPOUND	READOUT	READOUT VALUE
CC1CC(=O)c2c(N3CCN(C)CC3)c(F)cc3c(=O)c(C(=O)O)cn1c23.Cl.O (stereo not drawn) [Compound 35]	concentration at 0.5 h	24500
CC1CN(c2c(F)cc3c(=O)c(C(=O)O)cn4c3c2C(=O)CC4C)CCN1 (stereo not drawn) [Compound 16]	concentration at 0.5 h	16400
CC1COc2c(N3CCN(C)CC3)c(F)cc3c(=O)c(C(=O)O)cn1c23 (stereo not drawn) [Ofloxacin, reference compound]	concentration at 0.5 h	9000
CC1CC(=O)c2c(N3CCNC(C)(C)C3)c(F)cc3c(=O)c(C(=O)O)cn1c23 (stereo not drawn) [Compound 15]	concentration at 0.5 h	15000
CC1CN(c2c(F)cc3c(=O)c(C(=O)O)cn4c3c2C(=O)CC4C)CCN1C.Cl.O (stereo not drawn) [Compound 38]	concentration at 0.5 h	26700
CC1CN(c2c(F)cc3c(=O)c(C(=O)O)cn4c3c2C=CC4C)CCN1C (stereo not drawn) [Compound 25]	concentration at 0.5 h	15500
CC1CN(c2c(Cl)cc3c(=O)c(C(=O)O)cn4c3c2C=CC4C)CCN1 (stereo not drawn) [Compound 31]	concentration at 0.5 h	13800
CC1CC(=O)c2c(N3CCN(C)CC3)c(F)cc3c(=O)c(C(=O)O)cn1c23 (stereo not drawn) [Compound 3]	concentration at 0.5 h	24200

I: CC1CN(c2c(F)cc3c(=O)c(C(=O)O)cn4c3c2C=CC4C)CCN1 (stereo not drawn) [Compound 29]
II: CC1CCc2c(N3CCN(C)CC3)c(F)cc3c(=O)c(C(=O)O)cn1c23 (stereo not drawn) [OPC-7241, reference compound]
Lab notebook, comparison: I versus II , higher concentration at 0.5 h goes to which? Answer by quoting the chosen item's label.
I
(I: 15600 ng/mL, II: 9300 ng/mL)

* * *

test system: Proteus vulgaris ATCC 13315
READOUT: MIC (mg/L)

Example compounds with recorded MIC:
COMPOUND	TARGET OR SYSTEM	READOUT VALUE
CCN1CCN(c2c(Cl)cc3c(=O)c(C(=O)O)cn4c3c2C(=O)CC4C)CC1 (stereo not shown) [Compound 9]	Proteus vulgaris ATCC 13315	0.2
CC1CCc2c(N3CCN(C)CC3)c(F)cc3c(=O)c(C(=O)O)cn1c23 (stereo not shown) [OPC-7241, reference compound]	Proteus vulgaris ATCC 13315	0.1
CC1CC(=O)c2c(N3CCNCC3)c(F)cc3c(=O)c(C(=O)O)cn1c23 (stereo not shown) [Compound 1]	Proteus vulgaris ATCC 13315	0.2
CC1C=Cc2c(N3CCNC(C)(C)C3)c(F)cc3c(=O)c(C(=O)O)cn1c23 (stereo not shown) [Compound 26]	Proteus vulgaris ATCC 13315	0.1
CC1CN(c2c(F)cc3c(=O)c(C(=O)O)cn4c3c2C(=O)CC4C)CCN1 (stereo not shown) [Compound 16]	Proteus vulgaris ATCC 13315	0.2

A: CC1CN(c2c(F)cc3c(=O)c(C(=O)O)cn4c3c2C(=O)CC4C)CC(C)N1 (stereo not shown) [Compound 11]
B: CC1C=Cc2c(N3CCN(C)CC3)c(F)cc3c(=O)c(C(=O)O)cn1c23 (stereo not shown) [Compound 19]
C: CC1CC(=O)c2c(N3CCN(C)CC3)c(F)cc3c(=O)c(C(=O)O)cn1c23.Cl.O (stereo not shown) [Compound 35]
Hey, can you sort those compounds up there by MIC, smallest first? A complete answer lists every label in the requested sequence.
B, C, A

* * *

Staphylococcus aureus FDA 209P JC-1 MIC data
READOUT: MIC (µg/mL)

Example compounds with recorded MIC:
COMPOUND	MIC, µg/mL
CC1C=Cc2c(N3CCNCC3)c(F)cc3c(=O)c(C(=O)O)cn1c23 (centres unmarked) [Compound 20]	0.78
CC1CC(=O)c2c(N3CCN(C)CC3)c(F)cc3c(=O)c(C(=O)O)cn1c23 (centres unmarked) [Compound 3]	0.39
CC1CN(c2c(F)cc3c(=O)c(C(=O)O)cn4c3c2C=CC4C)CC(C)N1C (centres unmarked) [Compound 27]	0.78
CC1C=Cc2c(N3CCN(C)CC3)c(F)cc3c(=O)c(C(=O)O)cn1c23.Cl (centres unmarked) [Compound 37]	0.39

a: CC1CN(c2c(Cl)cc3c(=O)c(C(=O)O)cn4c3c2C=CC4C)CCN1 (centres unmarked) [Compound 31]
b: CC1CC(=O)c2c(N3CCN(C)CC3)c(Cl)cc3c(=O)c(C(=O)O)cn1c23 (centres unmarked) [Compound 7]
Lab notebook, comparison: a versus b , higher MIC goes to which? Answer by quoting the chosen item's label.
b
(b: 0.39 µg/mL, a: 0.2 µg/mL)

P: CCCN1CCN(c2c(F)cc3c(=O)c(C(=O)O)cn4c3c2C(=O)CC4C)CC1 (centres unmarked) [Compound 8]
Q: CC1COc2c(N3CCN(C)CC3)c(F)cc3c(=O)c(C(=O)O)cn1c23 (centres unmarked) [Ofloxacin, reference compound]
// returns P or Q , whichever has the lower MIC Answer by quoting the chosen item's label.
Q

* * *

tested on: Staphylococcus aureus FDA 209P JC-1
READOUT: MIC (µg/mL)

MOLECULE	MIC [µg/mL]
CC1CC(=O)c2c(N3CCNC(C)(C)C3)c(F)cc3c(=O)c(C(=O)O)cn1c23 (centres unmarked) [Compound 15]	0.39
CC1CN(c2c(F)cc3c(=O)c(C(=O)O)cn4c3c2C(=O)CC4C)CC(C)N1C.Cl.O (centres unmarked) [Compound 39]	0.39
CC1CC(=O)c2c(N3CCN(C)CC3)c(F)cc3c(=O)c(C(=O)O)cn1c23.Cl.O (centres unmarked) [Compound 35]	0.39

I: CC1CN(c2c(F)cc3c(=O)c(C(=O)O)cn4c3c2C=CC4C)CCN1 (centres unmarked) [Compound 29]
II: CC1CCc2c(N3CCN(C)CC3)c(F)cc3c(=O)c(C(=O)O)cn1c23 (centres unmarked) [OPC-7241, reference compound]
III: CC1CN(c2c(F)cc3c(=O)c(C(=O)O)cn4c3c2C(=O)CC4C)CCN1C.Cl.O (centres unmarked) [Compound 38]
Hey, can you sort those molecules up there by MIC, smallest first? A complete answer lists every label in the requested sequence.
I, II, III

* * *

Streptococcus faecalis AHU 1085 MIC data
READOUT: MIC (µg/mL)

COMPOUND	UNIT	MIC
CC1CN(c2c(F)cc3c(=O)c(C(=O)O)cn4c3c2C(=O)CC4C)CC(C)N1C.Cl.O (centres unmarked)	µg/mL	0.78
CC1CN(c2c(Cl)cc3c(=O)c(C(=O)O)cn4c3c2C=CC4C)CCN1 (centres unmarked)	µg/mL	0.78
CC1CC(=O)c2c(N3CCN(C)CC3)c(F)cc3c(=O)c(C(=O)O)cn1c23 (centres unmarked)	µg/mL	0.78
CC1CN(c2c(F)cc3c(=O)c(C(=O)O)cn4c3c2C(=O)CC4C)CC(C)N1 (centres unmarked)	µg/mL	3.13

a: CC1CC(=O)c2c(N3CCN(C)CC3)c(F)cc3c(=O)c(C(=O)O)cn1c23.Cl.O (centres unmarked)
b: CCN1CCN(c2c(Cl)cc3c(=O)c(C(=O)O)cn4c3c2C(=O)CC4C)CC1 (centres unmarked)
Lab notebook, comparison: a versus b , higher MIC goes to which? Answer by quoting the chosen item's label.
b
(b: 1.56 µg/mL, a: 0.78 µg/mL)
